Task for the reader: assign each of the following compounds its reported HCV replicon replication inhibitory activity: EC50.
Molecular target: HCV replicon
Assay type: cell-based, hepatitis C virus
Settings: HCV replicon cells, D-MEM with 5% fetal bovine serum, luciferase activity after two more days of cultivation, 50% enzyme activity level to control (DMSO only)
*1 amine or outer side, *2 acyl side, *3 side chain or, on linkers, in order; H or OH if unused. Where a SMILES comes first, the peptide text is derived from it. [ ]: non-standard residue; d: D form. X1 = C[C@H](COC(=O)N(C)c1ccccn1)C[C@@H](C(=O)[*:2])N(C)[*:1]; X2 = COCCN(CCOC)C(=O)OC[C@@H](C)C[C@@H](C(=O)[*:2])N(C)[*:1]; X3 = C[C@H](COC(=O)N1CCN(C)CC1)C[C@@H](C(=O)[*:2])N(C)[*:1]; NMe(dihydroBmt) = CCCC[C@@H](C)[C@@H](O)[C@H](NC)C(=O)O; MeBmt = C/C=C/C[C@@H](C)[C@@H](O)[C@H](NC)C(=O)O; NMeL = CN[C@@H](CC(C)C)C(=O)O; NMeV = CN[C@H](C(=O)O)C(C)C; Sar = CNCC(=O)O
One number for each entry, in µg/mL.

As a guide, the following entries are already answered.
compound | scale_unit | reported_result
C/C=C/C[C@@H](C)[C@@H](O)[C@H]1C(=O)N[C@@H]([C@@H](C)O)C(=O)N(C)CC(=O)N(C)[C@@H](CC(C)C)C(=O)N[C@@H](CC(C)C)C(=O)N(C)[C@@H](CC(C)C)C(=O)N[C@@H](C)C(=O)N[C@H](C)C(=O)N(C)[C@@H](C[C@H](C)COC(=O)N2CCN(C)CC2)C(=O)N[C@@H](CC(C)C)C(=O)N(C)[C@@H](C(C)C)C(=O)N1C [Ex 8] (cyclo([MeBmt]T[Sar][NMeL]L[NMeL]A[dA][X3]L[NMeV])) | µg/mL | 0.16
CCCC[C@@H](C)[C@@H](O)[C@H]1C(=O)N[C@@H]([C@@H](C)O)C(=O)N(C)CC(=O)N(C)[C@@H](CC(C)C)C(=O)N[C@@H](CC(C)C)C(=O)N(C)[C@@H](CC(C)C)C(=O)N[C@@H](C)C(=O)N[C@H](C)C(=O)N(C)[C@@H](C[C@H](C)COC(=O)N(C)c2ccccn2)C(=O)N[C@@H](CC(C)C)C(=O)N(C)[C@@H](C(C)C)C(=O)N1C [Ex 249] (cyclo([NMe(dihydroBmt)]T[Sar][NMeL]L[NMeL]A[dA][X1]L[NMeV])) | µg/mL | 0.07
C/C=C/C[C@@H](C)[C@@H](O)[C@H]1C(=O)N[C@@H]([C@@H](C)O)C(=O)N(C)[C@H](C)C(=O)N(C)[C@@H](CC(C)C)C(=O)N[C@@H](CC(C)C)C(=O)N(C)[C@@H](CC(C)C)C(=O)N[C@@H](C)C(=O)N[C@H](C)C(=O)N(C)[C@@H](C[C@H](C)COC(=O)N(C)CC(F)(F)F)C(=O)N[C@@H](CC(C)C)C(=O)N(C)[C@@H](C(C)C)C(=O)N1C | µg/mL | 0.022

Could you now consider this next compound?
For reference, reported HCV replicon replication inhibitory activity: EC50 for C/C=C/C[C@@H](C)[C@@H](O)[C@H]1C(=O)N[C@@H]([C@@H](C)O)C(=O)N(C)CC(=O)N(C)[C@@H](CC(C)C)C(=O)N[C@@H](CC(C)C)C(=O)N(C)[C@@H](CC(C)C)C(=O)N[C@@H](C)C(=O)N[C@H](C)C(=O)N(C)[C@@H](C[C@H](C)COC(=O)N(CCOC)CCOC)C(=O)N[C@@H](CC(C)C)C(=O)N(C)[C@@H](C(C)C)C(=O)N1C [Ex 10] (cyclo([MeBmt]T[Sar][NMeL]L[NMeL]A[dA][X2]L[NMeV])) stands at 0.18
